B1: MBP–Hrp1p NLS [S. cerevisiae] / Kap104p [yeast (S. cerevisiae)] (parent complex)
chain 1: RDRNDRDRDYNHRSGGNHRRNGRGGRGGYNRRNNGYHPYNR
chain 2: MASTWKPAEDYVLQLATLLQNCMSPNPEIRNNAMEAMENFQLQPEFLNYLCYILIEGESDDVLKQHYSLQDLQNNRATAGMLLKNSMLGGNNLIKSNSHDLGYVKSNIIHGLYNSNNNLVSNVTGIVITTLFSTYYRQHRDDPTGLQMLYQLLELTSNGNEPSIKALSKIMEDSAQFFQLEWSGNTKPMEALLDSFFRFISNPNFSPVIRSESVKCINTVIPLQTQSFIVRLDKFLEIIFQLAQNDENDLVRAQICISFSFLLEFRPDKLVSHLDGIVQFMLHLITTVNEEKVAIEACEFLHAFATSPNIPEHILQPYVKDIVPILLSKMVYNEESIVLLEASNDDDAFLEDKDEDIKPIAPRIVKKKEAGNGEDADDNEDDDDDDDDEDGDVDTQWNLRKCSAATLDVMTNILPHQVMDIAFPFLREHLGSDRWFIREATILALGAMAEGGMKYFNDGLPALIPFLVEQLNDKWAPVRKMTCWTLSRFSPWILQDHTEFLIPVLEPIINTLMDKKKDVQEAAISSVAVFIENADSELVETLFYSQLLTSFDKCLKYYKKKNLIILYDAIGRFAEKCALDETAMQIILPPLIEKWALLSDSDKELWPLLECLSCVASSLGERFMPMAPEVYNRAFRILCHCVELEAKSHQDPTIVVPEKDFIITSLDLIDGLVQGLGAHSQDLLFPQGTKDLTILKIMLECLQDPVHEVRQSCFALLGDIVYFFNSELVIGNLEDFLKLIGTEIMHNDDSDGTPAVINAIWALGLISERIDLNTYIIDMSRIILDLFTTNTQIVDSSVMENLSVTIGKMGLTHPEVFSSGAFANDSNWNKWCLSVNALDDVEEKSSAYMGFLKIINLTSTEVTMSNDTIHKIVTGLSSNVEANVFAQEIYTFLMNHSAQISAINFTPDEISFLQQFTS

- Variants of: B1
- assayName: ITC; parent: -10.1
readoutType: dG (kcal/mol)
The response must be a number in kcal/mol with no trailing unit.

Name the recorded dG of the variant listed here: chain 1 R31A
-10

Name the recorded dG of the variant listed here: chain 1 R19K, chain 1 R20K, chain 1 R23K, chain 1 R26K
-10

Name the recorded dG of the variant listed here: chain 1 R32A
-10.5

Name the recorded dG of the variant listed here: chain 1 Y36L
-10

Name the recorded dG of the variant listed here: chain 1 R19A, chain 1 Y36A
-9.7
